# Test system: yGsy2p (Saccharomyces cerevisiae, UniProt P27472)
# Sequence (P27472 1-705): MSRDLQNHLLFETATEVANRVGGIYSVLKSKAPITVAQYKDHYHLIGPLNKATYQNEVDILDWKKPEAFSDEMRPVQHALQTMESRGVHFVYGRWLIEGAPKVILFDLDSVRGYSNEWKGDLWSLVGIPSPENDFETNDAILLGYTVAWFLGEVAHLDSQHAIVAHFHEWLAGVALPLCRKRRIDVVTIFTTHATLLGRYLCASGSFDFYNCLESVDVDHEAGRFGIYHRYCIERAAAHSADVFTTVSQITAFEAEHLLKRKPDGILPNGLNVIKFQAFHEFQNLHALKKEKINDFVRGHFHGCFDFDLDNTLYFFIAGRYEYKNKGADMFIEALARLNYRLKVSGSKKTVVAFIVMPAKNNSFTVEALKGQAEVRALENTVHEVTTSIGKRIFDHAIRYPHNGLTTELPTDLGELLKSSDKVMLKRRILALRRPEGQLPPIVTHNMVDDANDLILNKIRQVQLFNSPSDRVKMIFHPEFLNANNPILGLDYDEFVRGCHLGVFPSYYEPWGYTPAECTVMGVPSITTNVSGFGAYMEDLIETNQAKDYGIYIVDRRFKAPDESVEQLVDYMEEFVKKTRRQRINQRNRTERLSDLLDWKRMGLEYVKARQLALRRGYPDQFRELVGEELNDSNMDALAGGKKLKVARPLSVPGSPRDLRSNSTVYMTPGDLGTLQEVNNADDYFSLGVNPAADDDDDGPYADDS
# Run description: Fluorescence polarization saturation binding of tracer to yGsy2p
Quantity: pKd
Scale note: pKd = -log10(concentration in M).

Data request, read-out pKd, for `O=C(CSCCC(=O)N[C@@H]1[C@@H](O)[C@H](O)[C@@H](COP(=O)(O)O)O[C@H]1O)Nc1ccc(-c2c3ccc(=O)cc-3oc3cc(O)ccc23)c(C(=O)O)c1`
5.12

====

# Test system: yGsy2p (Saccharomyces cerevisiae, UniProt P27472)
# Sequence (P27472 1-705): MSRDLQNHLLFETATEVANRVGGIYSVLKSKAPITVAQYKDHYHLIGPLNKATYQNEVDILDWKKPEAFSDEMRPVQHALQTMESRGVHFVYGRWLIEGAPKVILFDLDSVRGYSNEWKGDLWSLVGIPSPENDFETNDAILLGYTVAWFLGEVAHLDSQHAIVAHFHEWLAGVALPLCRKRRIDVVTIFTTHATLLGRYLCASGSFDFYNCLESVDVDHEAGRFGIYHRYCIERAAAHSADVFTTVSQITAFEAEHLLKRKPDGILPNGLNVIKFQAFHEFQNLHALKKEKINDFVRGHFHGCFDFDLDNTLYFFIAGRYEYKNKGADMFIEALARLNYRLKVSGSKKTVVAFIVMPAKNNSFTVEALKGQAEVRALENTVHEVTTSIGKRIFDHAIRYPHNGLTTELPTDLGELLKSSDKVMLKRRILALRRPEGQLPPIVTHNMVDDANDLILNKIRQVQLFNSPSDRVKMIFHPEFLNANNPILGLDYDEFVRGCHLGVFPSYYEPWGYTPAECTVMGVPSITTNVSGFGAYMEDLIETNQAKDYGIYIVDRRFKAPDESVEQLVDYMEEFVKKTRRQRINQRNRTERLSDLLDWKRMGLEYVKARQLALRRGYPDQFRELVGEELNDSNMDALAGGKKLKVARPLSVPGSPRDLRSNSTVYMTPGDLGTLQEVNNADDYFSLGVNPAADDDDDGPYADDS
# Run description: Fluorescence polarization competitive displacement of tracer from yGsy2p
# Type: binding
Quantity: Kd (µM)
Answer with a number only, understood to be in µM.

Data request, read-out Kd, for O=C[C@H](O)[C@@H](O)[C@H](O)[C@H](O)COP(=O)(O)O [Compound G6P, glucose-6-phosphate]
70.9
